experimental.protocol: C. albicans growth inhibition with fluconazole, primary screen, CaCi-2 strain, Alamar Blue fluorescence (AID 1979);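 further: all wells also contain fluconazole at 8 µg/ml as a sub-toxic cotreatment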
experimental.setup: C. albicans CaCi-2 (fluconazole-resistant clinical isolate) + fluconazole, 48 h, active compounds read high, concentration not given here
Screen size: about 300,000 compounds; about 1,700 (0.57%) were called active. Inconclusive results (about 2%) are left out. The list comes from a sample in which actives are over-represented; it also holds close analogues and randomly drawn compounds.
Decision: growth inhibition compared against 20%; not below it gives t, below it gives f.

Record excerpt, results attached:
In [3]: df
Out[3]:
                                   molecule  qualitative_label
0  CCOC(=O)c1c(NC(=O)CN2C(=O)NC3(CCC(C)CC3)C2=O)sc(C)c1CC (stereo not drawn)                  f
1  COc1ccc(C(=O)C2CCCN(Cc3ccc4nonc4c3)C2)c(C)c1 (stereo not drawn)                  f
2       NC(=O)COc1ccc2c3c(c(=O)oc2c1)CCCCC3                  t

Textbook exercise: given the entry `CC(=O)Nc1ccc(Nc2c3ccccc3nc3ccccc23)cc1` , state whether its growth inhibition is greater than or equal to 20%. t

Textbook exercise: given the entry `O=C(NNC(=S)NCc1ccco1)C(c1ccccc1)c1ccccc1` , state whether its growth inhibition is greater than or equal to 20%. f

Textbook exercise: given the entry `CCCCC(=O)NNC(=S)NC(=O)C(c1ccccc1)c1ccccc1` , state whether its growth inhibition is greater than or equal to 20%. t

Textbook exercise: given the entry `CN(CC(=O)Nc1cccc(F)c1)C(=O)C1=COCCO1` , state whether its growth inhibition is greater than or equal to 20%. f

Textbook exercise: given the entry `CN(C(=O)CC(NC(=O)c1ccccc1)(c1ccccc1)c1ccccc1)c1ccccc1` , state whether its growth inhibition is greater than or equal to 20%. t
